Just for reference, patent US10428140B2 is where these values come from.

target: T1, human EphA4 (Homo sapiens, UniProt P54764); assay: Affinity of humanized antibodies by SPR (Biacore T200); format: binding; conditions: human EphA4 extracellular region-SEAP-His; 1:1 binding model
T1 construct: made in house; not restated for the human SEAP-His protein
T1 sequence (P54764 20-547): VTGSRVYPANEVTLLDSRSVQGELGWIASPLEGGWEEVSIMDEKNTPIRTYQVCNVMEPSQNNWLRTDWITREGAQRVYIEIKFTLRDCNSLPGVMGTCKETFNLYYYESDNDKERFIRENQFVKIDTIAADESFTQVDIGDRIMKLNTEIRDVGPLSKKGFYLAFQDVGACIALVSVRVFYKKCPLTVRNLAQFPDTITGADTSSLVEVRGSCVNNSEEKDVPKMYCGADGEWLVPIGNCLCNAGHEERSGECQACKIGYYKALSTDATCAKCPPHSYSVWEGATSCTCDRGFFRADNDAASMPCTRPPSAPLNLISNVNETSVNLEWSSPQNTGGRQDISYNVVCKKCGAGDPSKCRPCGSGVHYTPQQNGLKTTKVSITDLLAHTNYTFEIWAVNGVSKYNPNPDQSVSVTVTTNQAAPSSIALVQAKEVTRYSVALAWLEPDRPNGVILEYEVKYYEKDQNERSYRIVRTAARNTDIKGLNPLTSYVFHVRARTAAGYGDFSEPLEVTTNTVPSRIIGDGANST
quantity.measured: ka (M⁻¹ s⁻¹)
Field: numeric (M⁻¹ s⁻¹). Do not append units.

Entry 85 (antibody, V domains shown, constant regions without entry; synthetic humanized antibody light chain variable region sequence; synthetic humanized antibody heavy chain variable region sequence) VL: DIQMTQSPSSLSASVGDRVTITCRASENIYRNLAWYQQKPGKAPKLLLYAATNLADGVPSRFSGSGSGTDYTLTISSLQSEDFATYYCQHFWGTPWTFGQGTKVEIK VH: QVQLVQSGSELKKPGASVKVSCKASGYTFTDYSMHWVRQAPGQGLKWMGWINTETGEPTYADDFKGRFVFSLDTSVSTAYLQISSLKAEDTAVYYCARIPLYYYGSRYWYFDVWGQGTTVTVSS : reported ka = ?
310000

Also, 67 (antibody, V domains shown, synthetic humanized antibody heavy chain variable region sequence; synthetic humanized antibody light chain variable region sequence) VH: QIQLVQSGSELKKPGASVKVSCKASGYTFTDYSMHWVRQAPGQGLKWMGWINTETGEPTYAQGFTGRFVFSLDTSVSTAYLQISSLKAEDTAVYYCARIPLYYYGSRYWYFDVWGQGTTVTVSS VL: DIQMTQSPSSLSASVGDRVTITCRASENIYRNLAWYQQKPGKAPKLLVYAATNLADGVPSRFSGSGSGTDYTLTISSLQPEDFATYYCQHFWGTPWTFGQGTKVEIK please.
330000

Same again, this time with 82 (antibody, V domains shown, constant regions without entry; synthetic humanized antibody light chain variable region sequence; synthetic humanized antibody heavy chain variable region sequence) VL: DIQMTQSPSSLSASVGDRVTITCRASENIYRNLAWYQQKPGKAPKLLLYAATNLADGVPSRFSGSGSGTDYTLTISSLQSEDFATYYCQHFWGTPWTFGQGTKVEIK VH: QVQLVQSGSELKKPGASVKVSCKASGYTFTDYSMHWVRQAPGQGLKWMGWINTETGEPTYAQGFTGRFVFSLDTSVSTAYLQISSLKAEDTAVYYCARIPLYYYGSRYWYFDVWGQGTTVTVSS
290000

Another molecule: 145 (antibody, V domains shown, synthetic humanized antibody heavy chain variable region sequence; synthetic humanized antibody light chain variable region sequence) VH: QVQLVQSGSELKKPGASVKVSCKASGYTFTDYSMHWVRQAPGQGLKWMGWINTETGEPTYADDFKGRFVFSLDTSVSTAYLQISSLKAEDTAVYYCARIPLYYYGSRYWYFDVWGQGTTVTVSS VL: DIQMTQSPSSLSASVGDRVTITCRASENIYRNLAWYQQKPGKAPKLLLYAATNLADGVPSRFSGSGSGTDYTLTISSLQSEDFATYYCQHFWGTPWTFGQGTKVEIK
330000
